Measured IC50 of individual entries
Target Entity: Human immunodeficiency virus type 1 reverse transcriptase (Human immunodeficiency virus 1)
Method Summary: Inhibition of recombinant wild-type HIV-1 reverse transcriptase incubated for 40 mins by fluorescence based assay
Value Kind: IC50 (nM)

>>> numeric_value("CCOC(=O)c1cnc(NC2CCN(Cc3ccc(B(O)O)cc3)CC2)nc1Oc1c(C)cc(-c2ccc(C#N)cc2)cc1C")
1300
>>> numeric_value("CCOC(=O)c1cnc(NC2CCN(Cc3ccc(F)cc3F)CC2)nc1Oc1c(C)cc(-c2ccc(C#N)cc2)cc1C")
634
>>> numeric_value("CCOC(=O)c1cnc(NC2CCN(Cc3ccc(C(F)(F)F)cc3)CC2)nc1Oc1c(C)cc(-c2ccc(C#N)cc2)cc1C")
990
>>> numeric_value("CCOC(=O)c1cnc(NC2CCN(Cc3cccnc3)CC2)nc1Oc1c(C)cc(-c2ccc(C#N)cc2)cc1C")
718
